Cited source: patent US9801901B2

- System: Burkholderia cepacia (1322, V23)
- procedureText: MIC-assay, Mueller-Hinton broth with G-block alginate, 384-well, OD600
- conditionInfo: Table 8, G-block (OligoCF-5/20) 10%
measuredEndpoint: MIC

1) CC[C@H]1OC(=O)[C@H](C)[C@@H](O[C@H]2C[C@@](C)(OC)[C@@H](O)[C@H](C)O2)[C@H](C)[C@@H](O[C@@H]2O[C@H](C)C[C@H](N(C)C)[C@H]2O)[C@](C)(O)C[C@@H](C)/C(=N\OCOCCOC)[C@H](C)[C@@H](O)[C@]1(C)O = 64 mg/L
2) CC[C@H]1OC(=O)[C@H](C)[C@@H](O[C@H]2C[C@@](C)(OC)[C@@H](O)[C@H](C)O2)[C@H](C)[C@@H](O[C@@H]2O[C@H](C)C[C@H](N(C)C)[C@H]2O)[C@](C)(O)C[C@@H](C)CN(C)[C@H](C)[C@@H](O)[C@]1(C)O = 8 mg/L
3) CC(C)(O/N=C(\C(=O)N[C@@H]1C(=O)N2C(C(=O)[O-])=C(C[n+]3ccccc3)CS[C@H]12)c1csc(N)n1)C(=O)O = 16 mg/L
4) O=C(O)c1cn(C2CC2)c2cc(N3CCNCC3)c(F)cc2c1=O = > 8 mg/L
5) CN(C)[C@@H]1C(O)=C(C(N)=O)C(=O)[C@@]2(O)C(O)=C3C(=O)c4c(O)cccc4[C@@](C)(O)[C@H]3[C@H](O)[C@@H]12 = 64 mg/L
6) CC[C@H]1OC(=O)[C@H](C)[C@@H](O[C@H]2C[C@@](C)(OC)[C@@H](O)[C@H](C)O2)[C@H](C)[C@@H](O[C@@H]2O[C@H](C)C[C@H](N(C)C)[C@H]2O)[C@](C)(O)C[C@@H](C)[C@@H]2N[C@@H](COCCOC)O[C@H]([C@H]2C)[C@]1(C)O = 64 mg/L
